- Target Desc: T1, β-catenin (UniProt P35222 1-781, limits assumed)
- T1 construct: also called beta-catenin
- T1 sequence (looked up): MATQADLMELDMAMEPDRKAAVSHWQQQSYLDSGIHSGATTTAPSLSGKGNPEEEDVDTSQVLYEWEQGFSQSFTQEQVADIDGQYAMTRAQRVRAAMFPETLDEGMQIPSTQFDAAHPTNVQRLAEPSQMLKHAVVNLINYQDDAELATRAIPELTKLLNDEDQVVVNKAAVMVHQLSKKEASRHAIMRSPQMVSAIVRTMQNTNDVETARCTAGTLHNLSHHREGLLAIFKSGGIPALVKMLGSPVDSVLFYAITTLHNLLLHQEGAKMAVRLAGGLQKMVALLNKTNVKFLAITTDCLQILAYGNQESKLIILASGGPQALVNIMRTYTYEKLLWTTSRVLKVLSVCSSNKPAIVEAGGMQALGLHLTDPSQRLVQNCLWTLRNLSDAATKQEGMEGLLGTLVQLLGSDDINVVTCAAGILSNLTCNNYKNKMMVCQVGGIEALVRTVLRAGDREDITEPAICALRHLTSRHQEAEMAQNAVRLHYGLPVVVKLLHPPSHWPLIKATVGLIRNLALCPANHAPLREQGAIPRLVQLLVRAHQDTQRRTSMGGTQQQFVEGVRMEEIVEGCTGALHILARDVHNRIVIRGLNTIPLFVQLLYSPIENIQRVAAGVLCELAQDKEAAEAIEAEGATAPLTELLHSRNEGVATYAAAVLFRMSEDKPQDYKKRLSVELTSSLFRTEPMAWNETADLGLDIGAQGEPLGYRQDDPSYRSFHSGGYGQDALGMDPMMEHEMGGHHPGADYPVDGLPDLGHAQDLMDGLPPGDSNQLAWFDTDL
- Assay Notes: ALPHA Screen (BCL9/β-catenin);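 note: bead proximity readout with the polypeptide linked to donor beads and β-catenin fixed on acceptor beads, their binding bringing the beads close enough to emit signal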
Bridges are numbered along the chain shown (N, C = ends). Primed or numbered codes have the meaning given here. Where no end group is shown, it is not given here. [ ]: non-standard residue; d: D form. S5′ = (S)-2-(4'-pentenyl)alanine, olefinic stapling residue closed by ring-closing metathesis; NMeR′ = N-methylarginine (methylation site not shown in the text); 2Nal = N[C@@H](Cc1ccc2ccccc2c1)C(=O)O; Cba = N[C@@H](CC1CCC1)C(=O)O; S5 = C=CCCC[C@](C)(N)C(=O)O; Nle = CCCC[C@H](N)C(=O)O
// reported IC50 for each item listed

>  <Binder>
Ac-LQTL[NMeR′][S5]IQ[NMeR′][S5][Cba][2Nal]-NH2 (staple 6-10; not fully specified (residue 2); printed as L(N-methylQ)TL(N-methylR)XIQ(N-methylR)X(CBA)(2-Nal)) [SEQ ID NO: 128]

>  <Value Unit>
µM

>  <IC50>
29.5

$$$$
>  <Binder>
Ac-QERSLQTLR[S5]IQR[S5]L[2Nal]-NH2 (staple 10-14; not fully specified; printed as QERSLQTLRXIQRXL(2-Nal)) [SEQ ID NO: 10]

>  <Value Unit>
µM

>  <IC50>
4.2

$$$$
>  <Binder>
Ac-HRE[S5′]SLQ[S5′]LR[Nle]IQR[Nle][Cba][2Nal]-OH (staple 4-8) [SEQ ID NO: 81]

>  <Value Unit>
µM

>  <IC50>
45.5

$$$$
>  <Binder>
LQTLR[Nle]IQR[Nle]L[2Nal]PD [SEQ ID NO: 54]

>  <Value Unit>
µM

>  <IC50>
14.7

$$$$

Cited source for all entries: patent US20200262867A1
